These measurements were taken from the supplement of paper PMC4932681.

# System: BT-474
# assay.notes: viability inhibition at highest dose (% inhibition); higher = more growth inhibition
# run.conditions: 4-OH-tamoxifen in medium 0 µM; 72 h
Measured viability inhibition at highest dose of individual entries
measured.attribute: viability inhibition at highest dose

CCCCC(=O)OCC(=O)[C@]1(O)Cc2c(O)c3c(c(O)c2[C@@H](O[C@H]2C[C@H](NC(=O)C(F)(F)F)[C@H](O)[C@H](C)O2)C1)C(=O)c1c(OC)cccc1C3=O [Valrubicin] (drug 10000 nM): 42.6
COc1cccc2c1C(=O)c1c(O)c3c(c(O)c1C2=O)C[C@@](O)(C(=O)CO)C[C@@H]3O[C@H]1C[C@H](N)[C@H](O)[C@H](C)O1 [Doxorubicin] (drug 1000 nM): 65
CCCC(CCC)C(=O)O [Valproic acid] (drug 10000 nM): -9.64
C[C@]1(O)C[C@@H](c2nc(-c3ccc4ccc(-c5ccccc5)nc4c3)c3c(N)nccn32)C1 [Linsitinib (OSI-906)] (drug 10000 nM): -2.14
COc1ccc(S(=O)(=O)Nc2cccnc2Nc2ccc(O)cc2)cc1 [ABT-751] (drug 10000 nM): 42.6
Cn1cc(C2=Nc3cc(NC(=O)C(N)C4CCCCC4)cc4c3C2=CNNC4=O)cn1 (stereo unspecified) (drug 10000 nM): 3.65

---

Measured viability inhibition at highest dose of individual entries
# System: MCF-7
# assay.notes: viability inhibition at highest dose (% inhibition); higher = more growth inhibition
# run.conditions: 4-OH-tamoxifen in medium 0 µM; 72 h
measured.attribute: viability inhibition at highest dose

COc1cc(Nc2ncc3c(n2)-c2ccc(Cl)cc2C(c2c(F)cccc2OC)=NC3)ccc1C(=O)O [Alisertib (MLN8237)] (drug 10000 nM): 17.2
CO[C@H]1C[C@@H]2CC[C@@H](C)[C@@](O)(O2)C(=O)C(=O)N2CCCC[C@H]2C(=O)O[C@H]([C@H](C)C[C@@H]2CC[C@@H](O)[C@H](OC)C2)CC(=O)[C@H](C)/C=C(\C)[C@@H](O)[C@@H](OC)C(=O)[C@H](C)C[C@H](C)/C=C/C=C/C=C/1C [Sirolimus (Rapamycin)] (drug 1000 nM): 45.5

---

Measured drug sensitivity score of individual entries
# Test system: T-47D Tam2
# assay.notes: drug sensitivity score (DSS) (DSS (dimensionless)); higher = more sensitive; extreme values may be limits of the assay
# run.conditions: 4-OH-tamoxifen in medium 1 µM; 72 h
Where a name gives a salt, the structure may show the parent alone.
measured.attribute: drug sensitivity score

Cc1ccc([N+](=O)[O-])cc1S(=O)(=O)N(C)/N=C/c1cnc2ccc(Br)cn12 [PIK-75 (HCl)]: 20.5
Cc1c(N)nc([C@H](CC(N)=O)NC[C@H](N)C(N)=O)nc1C(=O)N[C@H](C(=O)N[C@H](C)[C@@H](O)[C@H](C)C(=O)N[C@H](C(=O)NCCc1nc(-c2nc(C(=O)NCCC[S+](C)C)cs2)cs1)[C@@H](C)O)[C@@H](OC1OC(CO)C(O)C(O)C1OC1OC(CO)C(O)C(OC(N)=O)C1O)c1cnc[nH]1 (stereo not given in full) [Bleomycin]: 0
CCCC(CCC)C(=O)O [Valproic acid]: 1.73
Cc1cc(C(C)Nc2ccccc2)c2nc(N3CCOCC3)cc(=O)n2c1 (stereo not given) [TGX-221]: 0.389
CC(=O)Nc1ccc(C(=O)Nc2ccccc2N)cc1 [Tacedinaline (CI-994)]: 0.132
Cn1c(=O)n(-c2ccc(C(C)(C)C#N)cc2)c2c3cc(-c4cnc5ccccc5c4)ccc3ncc21 [Dactolisib (NVP-BEZ235)]: 4.46
CNCc1ccc(-c2[nH]c3cc(F)cc4c3c2CCNC4=O)cc1: 0
CN1CCN(c2ccc3nc(-c4c(N)c5c(F)cccc5[nH]c4=O)[nH]c3c2)CC1 [Dovitinib (CHIR-258)]: 0
Cn1cc(CNCC2CCN(c3ncc(C(=O)NO)cn3)CC2)c2ccccc21: 8.78
O=P1(N(CCCl)CCCl)NCCCO1 (stereo not given) [Clafen (Cyclophosphamide, Endoxan)]: 0.114
Nc1nc(=O)c2c([nH]1)NCC(CNc1ccc(C(=O)N[C@@H](CCC(=O)O)C(=O)O)cc1)N2C=O (mixture of isomers) [Folinic acid]: 0
COc1c(C)cnc(Cn2cnc3c(Cl)nc(N)nc32)c1C [BIIB021]: 8.67
O=C(O)C1(C(=O)O)CCC1.[NH2-].[NH2-].[Pt+2] [Carboplatin]: 0
CCc1c(C(=O)C(N)=O)c2c(OCC(=O)O)cccc2n1Cc1ccccc1 [Varespladib]: 0
CN1CC[C@H](c2c(O)cc(O)c3c(=O)cc(-c4ccccc4Cl)oc23)[C@H](O)C1 [Alvocidib (Flavopiridol)]: 7.73
COc1cc2c(Oc3ccc4[nH]c(C)cc4c3F)ncnc2cc1OCCCN1CCCC1 [Cediranib (AZD2171, Recentin)]: 0
CS(=O)(=O)N1CCN(Cc2cc3nc(-c4cccc5[nH]ncc45)nc(N4CCOCC4)c3s2)CC1 [Pictilisib (GDC-0941)]: 9.95
CC/C(=C(\c1ccc(O)cc1)c1ccc(OCCN(C)C)cc1)c1ccccc1 [4-hydroxytamoxifen]: 4.19
CCS(=O)(=O)c1cccc(-c2cc(C(=O)NC3CCN(C)CC3)c(C)c3[nH]c4ncc(C)cc4c23)c1 [TAK-901]: 2.96
CC(C)C[C@H](NC(=O)[C@H](Cc1ccccc1)NC(=O)c1cnccn1)B(O)O [Bortezomib]: 26.5
Nc1nc(Cl)nc2c1ncn2[C@@H]1O[C@H](CO)[C@@H](O)[C@@H]1F [Clofarabine]: 1.77
O=NN(CCCl)C(=O)NC1CCCCC1 [Lomustine]: 0
CCCCCOC(=O)Nc1nc(=O)n([C@@H]2O[C@H](C)[C@@H](O)[C@H]2O)cc1F [Capecitabine]: 0
Clc1ccc(C(c2ccccc2Cl)C(Cl)Cl)cc1 (stereo not given) [Mitotane]: 0
Nc1ccn([C@@H]2O[C@H](CO)[C@@H](O)C2(F)F)c(=O)n1 [Gemcitabine]: 0.815
Nc1cccc2c1CN(C1CCC(=O)NC1=O)C2=O (stereo not given) [Lenalidomide]: 0
CC[C@]1(O)C[C@H]2CN(CCc3c([nH]c4ccccc34)[C@@](C(=O)OC)(c3cc4c(cc3OC)N(C=O)[C@H]3[C@@](O)(C(=O)OC)[C@H](OC(C)=O)[C@]5(CC)C=CCN6CC[C@]43[C@@H]65)C2)C1 [Vincristine]: 17.3
CCNC(=O)CCC/C=C\C[C@@H]1[C@@H](/C=C/[C@@H](O)CCc2ccccc2)[C@H](O)C[C@@H]1O [Bimatoprost]: 0
CC1=C2C[C@H]3[C@@H](CC=C4C[C@@H](O)CC[C@@]43C)[C@@H]2CC[C@]12O[C@@H]1C[C@H](C)CN[C@H]1[C@H]2C [Cyclopamine]: 0
N#CCNC(=O)c1ccc(-c2ccnc(Nc3ccc(N4CCOCC4)cc3)n2)cc1 [Momelotinib (CYT-387)]: 1.42

---

Measured drug sensitivity score of individual entries
# Tested on: T-47D
# assay.notes: drug sensitivity score (DSS) (DSS (dimensionless)); higher = more sensitive; extreme values may be limits of the assay
# run.conditions: 4-OH-tamoxifen in medium 0 µM; 72 h
measured.attribute: drug sensitivity score

CC[C@@]1(O)C(=O)OCc2c1cc1n(c2=O)Cc2cc3c(CN(C)C)c(O)ccc3nc2-1: 7.46
COc1c(C)cnc(Cn2cnc3c(Cl)nc(N)nc32)c1C: 11.6
CO[C@H]1C[C@@H]2CC[C@@H](C)[C@@](O)(O2)C(=O)C(=O)N2CCCC[C@H]2C(=O)O[C@H]([C@H](C)C[C@@H]2CC[C@@H](OC(=O)C(C)(CO)CO)[C@H](OC)C2)CC(=O)[C@H](C)/C=C(\C)[C@@H](O)[C@@H](OC)C(=O)[C@H](C)C[C@H](C)/C=C/C=C/C=C/1C: 3.79
Cc1cccc(-c2nn3c(c2-c2ccnc4ccc(C(N)=O)cc24)CCC3)n1: 0
C[C@H]1C[C@@H]2[C@H]([C@@H](O)C[C@@]3(C)[C@H]2CC[C@]3(O)C(=O)CO)[C@@]2(C)C=CC(=O)C=C12: 0
Cn1cc(CNCC2CCN(c3ncc(C(=O)NO)cn3)CC2)c2ccccc21: 15.4
CC(C)(C)c1cnc(CSc2cnc(NC(=O)C3CCNCC3)s2)o1: 7.36

---

# System: BT-474 Tam1
# assay.notes: drug sensitivity score (DSS) (DSS (dimensionless)); higher = more sensitive; extreme values may be limits of the assay
# run.conditions: 4-OH-tamoxifen in medium 1 µM; 72 h
Measured drug sensitivity score of individual entries
measured.attribute: drug sensitivity score

CC(C)C[C@H](NC(=O)[C@@H](COC(C)(C)C)NC(=O)[C@H](Cc1ccc(O)cc1)NC(=O)[C@H](CO)NC(=O)[C@H](Cc1c[nH]c2ccccc12)NC(=O)[C@H](Cc1cnc[nH]1)NC(=O)[C@@H]1CCC(=O)N1)C(=O)N[C@@H](CCCNC(=N)N)C(=O)N1CCC[C@H]1C(=O)NNC(N)=O [Goserelin acetate]: 0
O=C1NC(=O)[C@@H](c2cn3c4c(cccc24)CCC3)[C@@H]1c1c[nH]c2ccccc12 [Tivatinib (ARQ 197)]: 0.142
